- experiment: folding enthalpy; higher = less favourable; fluorescence melt of hairpins on a sequencing array, two-state fit
- protocol.conditions: sodium 0.088 M
Catalogue of folding enthalpy values
Give just the numeric value; kJ/mol need not be written.

Past entries and their recorded results:
GCCAGCGAAAGCTCTGGC ((((((....)))..)))
-102
GCGTTTAAACGC ((((....))))
-123
GGTCCTCGAAAGAGTACC (((.(((....))).)))
-130
GTGAGTGGAAACGTTCAC ((((..(....)..))))
-46.9

I have this sequence here, GCAGCGGGAAACCACCGC ((.(.((....)).).)) , and I need its recorded folding enthalpy.
-59.3

I have this sequence here, GGTAGCGGAAACGCCACC (((.(((....))).))) , and I need its recorded folding enthalpy.
-104

---

- experiment: folding enthalpy; higher = less favourable; fluorescence melt of hairpins on a sequencing array, two-state fit
- protocol.conditions: sodium 0.088 M
measured.attribute: folding enthalpy
Number first, unit second: that is the form wanted.

Past entries and their recorded results:
GGTACCCCGAAAGGGACC (((..(((....))))))
-19.8 kcal/mol
GCCGACGAAAGTCTGGC ((((((....))).)))
-34.6 kcal/mol
GATCACAATAGTGATC ((((((....))))))
-38.3 kcal/mol
GTGGGAGGAAACTCCTGC (..((((....))))..)
-17.4 kcal/mol
GATCCAAATTTGGATC ((((((....))))))
-36.1 kcal/mol

I have this sequence here, GTCAAGCCGAAAGGCGAC (((..(((....)))))) , and I need its recorded folding enthalpy.
-12.2 kcal/mol

I have this sequence here, GATCAGGTAACTGATC ((((((....)))))) , and I need its recorded folding enthalpy.
-39.9 kcal/mol

---

- experiment: folding enthalpy; higher = less favourable; fluorescence melt of hairpins on a sequencing array, two-state fit
- protocol.conditions: sodium 0.088 M
measured.attribute: folding enthalpy (kcal/mol)
Give just the numeric value; kcal/mol need not be written.

GCTATGCGAAAGCCTCGC ((.(.((....)).).))
-11.5
GACGATGGAAACGTCGTC (((((.(....).)))))
-35.1
GCGGGAGCCGC ((((...))))
-9.67
GAGCGGGGAAACCTGCTC ((((.((....)).))))
-30.6
GAAAGCGAAAGCTAATTC ((((((....)))..)))
-8.31

I have this sequence here, GTTTGAGGAAACTTGAAC (((..((....))..))) , and I need its recorded folding enthalpy.
-17.3

I have this sequence here, GATCTAATCGTAGATC ((((((....)))))) , and I need its recorded folding enthalpy.
-13.7

I have this sequence here, GATCCGTCAACGGATC ((((((....)))))) , and I need its recorded folding enthalpy.
-35.9

I have this sequence here, GATCAATAATTGATC ((((((...)))))) , and I need its recorded folding enthalpy.
-23.8

I have this sequence here, GATCCGGATGCGGATC ((((((....)))))) , and I need its recorded folding enthalpy.
-35.4

I have this sequence here, GCCAGGCGAAAGCCCGGC (((.(((....))).))) , and I need its recorded folding enthalpy.
-24.5

I have this sequence here, GATCCCCACTGGGATC ((((((....)))))) , and I need its recorded folding enthalpy.
-35.3
